test: Toxicity against HEK293 cells assessed as reduction in cell viability after 48 hrs by EZ4U label based assay; details: human
Endpoint label: IC50 at 48 h (µM)

[[record]]
compound = "CC(C(=O)N1CCN(c2cccc(C(F)(F)F)c2)CC1)N1C(=O)CCC1=O (racemic)"
units_symbol = "µM"
reported_value = 50.7


---

Let's look at some molecules and their measured inhibition.
species: Rattus norvegicus; assay: Inhibition of [3H]BTX binding to sodium channel site 2 in rat cerebral cortex synaptosomes at 10 uM incubated for 60 mins by scintillation counting based radioligand displacement assay; format: subcellular
Endpoint label: inhibition (%)

[[record]]
molecule = "CC(C(=O)N1CCN(c2cccc(C(F)(F)F)c2)CC1)N1C(=O)CCC1=O (racemic)"
endpoint_label = "inhibition"
reported_value = 12.2

[[record]]
molecule = "COCC(C(=O)N1CCN(c2cccc(C(F)(F)F)c2)CC1)N1C(=O)CCC1=O (racemic)"
endpoint_label = "inhibition"
reported_value = 14.6

[[record]]
molecule = "NC(=O)N1c2ccccc2C=Cc2ccccc21"
endpoint_label = "inhibition"
reported_value = 4.6

[[record]]
molecule = "CCC(C(=O)N1CCN(c2cccc(C(F)(F)F)c2)CC1)N1C(=O)CCC1=O (racemic)"
endpoint_label = "inhibition"
reported_value = 9.5


---

test system: Mus musculus; assay: Anticonvulsant activity in Swiss mouse assessed as protection against seizures at 100 mg/kg, ip dosed 0.5 hrs before pentylenetetrazole challenge by subcutaneous pentylenetetrazole seizure test; assay type: functional
Endpoint label: Activity (%)

[[record]]
compound = "CC(C(=O)N1CCN(c2ccccc2C(F)(F)F)CC1)N1C(=O)CCC1=O (racemic)"
endpoint_label = "Activity"
reported_value = 75

[[record]]
compound = "CC(C(=O)N1CCN(c2cccc(Cl)c2)CC1)N1C(=O)CCC1=O (racemic)"
endpoint_label = "Activity"
reported_value = 75

[[record]]
compound = "CCC(C(=O)N1CCN(c2cccc(C(F)(F)F)c2)CC1)N1C(=O)CCC1=O (racemic)"
endpoint_label = "Activity"
reported_value = 75

[[record]]
compound = "CC(C(=O)N1CCN(c2cccc(C(F)(F)F)c2)CC1)N1C(=O)CCC1=O (racemic)"
endpoint_label = "Activity"
reported_value = 100

[[record]]
compound = "COCC(C(=O)N1CCN(c2cccc(C(F)(F)F)c2)CC1)N1C(=O)CCC1=O (racemic)"
endpoint_label = "Activity"
reported_value = 50


---

Let's look at some molecules and their measured Activity.
tested on: Mus musculus; assay: Anticonvulsant activity in Swiss mouse assessed as protection against seizures at 300 mg/kg, ip dosed 1 hr before initiation of maximal electroconvulsions by maximal electroshock test; assay type: functional
Endpoint label: Activity

[[record]]
molecule = "CCC(C(=O)N1CCN(c2cccc(C)c2)CC1)N1C(=O)CCC1=O (racemic)"
endpoint_label = "Activity"
reported_value = "75%"

[[record]]
molecule = "CCC(C(=O)N1CCN(c2ccc(F)cc2)CC1)N1C(=O)CCC1=O (racemic)"
endpoint_label = "Activity"
reported_value = "25%"

[[record]]
molecule = "CCC(C(=O)N1CCN(c2ccccc2)CC1)N1C(=O)CCC1=O (racemic)"
endpoint_label = "Activity"
reported_value = "75%"

[[record]]
molecule = "CCC(C(=O)N1CCN(c2cccc(OC)c2)CC1)N1C(=O)CCC1=O (racemic)"
endpoint_label = "Activity"
reported_value = "0%"

[[record]]
molecule = "CC(C(=O)N1CCN(c2ccccc2F)CC1)N1C(=O)CCC1=O (racemic)"
endpoint_label = "Activity"
reported_value = "50%"

[[record]]
molecule = "CCC(C(=O)N1CCOCC1)N1C(=O)CCC1=O (racemic)"
endpoint_label = "Activity"
reported_value = "0%"

[[record]]
molecule = "CCC(C(=O)N1CCN(c2cccc(Cl)c2)CC1)N1C(=O)CCC1=O (racemic)"
endpoint_label = "Activity"
reported_value = "100%"

[[record]]
molecule = "CC(C(=O)N1CCN(c2ccc(C(F)(F)F)cc2)CC1)N1C(=O)CCC1=O (racemic)"
endpoint_label = "Activity"
reported_value = "0%"

[[record]]
molecule = "CCC(C(=O)N1CCN(c2ccccc2C(F)(F)F)CC1)N1C(=O)CCC1=O (racemic)"
endpoint_label = "Activity"
reported_value = "0%"

[[record]]
molecule = "CCC(C(=O)N1CCN(c2cccc(F)c2)CC1)N1C(=O)CCC1=O (racemic)"
endpoint_label = "Activity"
reported_value = "75%"

